- tgt: human F508del-CFTR (Homo sapiens, UniProt P13569, DEL508-508)
- Sequence (P13569 with tags, fused parts or gaps DEL508-508): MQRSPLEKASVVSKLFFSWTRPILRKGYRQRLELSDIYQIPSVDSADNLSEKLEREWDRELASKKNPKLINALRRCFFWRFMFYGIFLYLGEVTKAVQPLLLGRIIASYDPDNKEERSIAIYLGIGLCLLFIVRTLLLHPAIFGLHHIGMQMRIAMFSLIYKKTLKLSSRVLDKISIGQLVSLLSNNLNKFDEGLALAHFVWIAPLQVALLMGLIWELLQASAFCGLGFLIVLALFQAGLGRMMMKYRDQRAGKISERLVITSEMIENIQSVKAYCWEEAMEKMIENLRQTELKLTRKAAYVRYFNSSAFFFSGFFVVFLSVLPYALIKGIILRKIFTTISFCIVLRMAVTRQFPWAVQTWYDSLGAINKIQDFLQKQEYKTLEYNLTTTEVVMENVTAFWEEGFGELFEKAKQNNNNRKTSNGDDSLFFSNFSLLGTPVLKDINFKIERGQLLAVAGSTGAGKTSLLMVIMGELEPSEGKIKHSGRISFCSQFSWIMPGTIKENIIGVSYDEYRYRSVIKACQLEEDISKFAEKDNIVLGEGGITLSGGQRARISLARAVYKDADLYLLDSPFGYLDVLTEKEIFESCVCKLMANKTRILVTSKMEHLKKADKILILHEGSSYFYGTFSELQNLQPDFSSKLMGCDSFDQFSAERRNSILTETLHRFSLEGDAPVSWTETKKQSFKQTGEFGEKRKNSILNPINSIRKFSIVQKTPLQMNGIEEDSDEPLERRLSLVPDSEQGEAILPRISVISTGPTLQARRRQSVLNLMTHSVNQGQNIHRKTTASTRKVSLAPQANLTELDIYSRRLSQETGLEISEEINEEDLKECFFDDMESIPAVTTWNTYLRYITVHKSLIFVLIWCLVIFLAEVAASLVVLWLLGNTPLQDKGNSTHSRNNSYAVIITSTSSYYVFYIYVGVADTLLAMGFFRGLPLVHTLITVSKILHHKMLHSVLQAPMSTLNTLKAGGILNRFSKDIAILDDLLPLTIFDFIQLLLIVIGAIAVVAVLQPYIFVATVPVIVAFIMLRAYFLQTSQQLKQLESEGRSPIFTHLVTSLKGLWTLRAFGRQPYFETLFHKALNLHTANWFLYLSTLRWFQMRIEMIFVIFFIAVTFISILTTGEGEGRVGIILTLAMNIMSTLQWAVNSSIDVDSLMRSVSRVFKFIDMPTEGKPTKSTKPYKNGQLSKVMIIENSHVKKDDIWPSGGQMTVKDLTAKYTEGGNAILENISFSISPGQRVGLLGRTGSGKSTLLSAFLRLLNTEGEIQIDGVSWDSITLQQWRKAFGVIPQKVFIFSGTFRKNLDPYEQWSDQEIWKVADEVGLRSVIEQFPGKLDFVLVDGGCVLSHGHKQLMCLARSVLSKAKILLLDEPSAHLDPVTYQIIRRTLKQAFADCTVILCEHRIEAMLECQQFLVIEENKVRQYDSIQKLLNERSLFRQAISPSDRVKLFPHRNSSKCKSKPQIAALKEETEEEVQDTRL
- testMethodNotes: F508del-CFTR cell surface expression (corrector activity), DiscoveRx ß-galactosidase complementation chemiluminescence assay in recombinant U2OS cell line
- runConditions: U2OS, in relation to the Emax of the corrector lumacaftor (=100%); U2OS cell line, 16h compound incubation; arithmetic mean values
Strictly below 200% in Emax: True. Otherwise: False.

// known answers, use as guide
                               recordsmiles  classname
0  Cc1cc(CCNC(=O)[C@@H]2CC(=O)N(C)[C@@H](CC(C)C)C(=O)N(C)C3(CC3)C(=O)N[C@H](Cc3ccccc3)COc3cnc4ccccc4c3C(=O)N2)no1      False
1  CC(C)C[C@H]1C(=O)N2CCOC[C@@H]2C(=O)N[C@H](Cc2ccccc2)COc2ccc3ccccc3c2C(=O)N[C@H](C(=O)NCCc2nc3ccccc3o2)CC(=O)N1C      False
2  COc1ccc(CCNC(=O)[C@@H]2CC(=O)N(C)[C@@H](CC(C)C)C(=O)N3CCCC[C@@H]3C(=O)N[C@H](Cc3ccccc3)COc3cnc4ccccc4c3C(=O)N2)cc1F      False
3  COc1cccc(CCNC(=O)[C@@H]2CC(=O)N(C)[C@@H](CC(C)C)C(=O)N3CCCC[C@H]3C(=O)N[C@H](Cc3ccccc3)COc3cnc4ccccc4c3C(=O)N2)c1       True

Now let's try a different one.
Query block: Is 200% strictly greater than the molecule's reported Emax? molecule: `COc1ccc(CCNC(=O)[C@@H]2CC(=O)N(C)[C@@H](CC(C)C)C(=O)N3CCCC[C@@H]3C(=O)N[C@H](Cc3ccccc3)COc3cnc4ccccc4c3C(=O)N2)cc1C`
Result block: True

###

A collection of compounds and their measured EC50
- tgt: human F508del-CFTR (Homo sapiens, UniProt P13569, DEL508-508)
- testMethodNotes: F508del-CFTR cell surface expression (corrector activity), DiscoveRx ß-galactosidase complementation chemiluminescence assay in recombinant U2OS cell line
- runConditions: EC50, F508del-CFTR cell surface expression, U2OS cell line, 16h compound incubation; geomean values
Just the number in nM, nothing appended.

Worked cases, answers included:
recordSmiles	EC50, nM
CC(C)C[C@H]1C(=O)N2CCOC[C@@H]2C(=O)N[C@H](Cc2ccccc2)COc2ccc3ccccc3c2C(=O)N[C@H](C(=O)NCCc2ccc3c(c2)OCC3)CC(=O)N1C	353
[2H]C([2H])([2H])Oc1cccc(CCNC(=O)[C@@H]2CC(=O)N(C)[C@@H](CC(C)C)C(=O)N(CCC3CCCCC3)CC(=O)N[C@H](Cc3ccccc3)COc3cnc4ccccc4c3C(=O)N2)c1	55

Moving on to the next compound.
Query block: Given `CC(C)C[C@H]1C(=O)N2CCCC[C@@H]2C(=O)N[C@H](Cc2ccccc2)COc2cnc3ccccc3c2C(=O)N[C@H](C(=O)NCCc2nnc(-c3ccccc3OC(F)(F)F)[nH]2)CC(=O)N1C` , state its recorded EC50.
Result block: 230

###

- tgt: human F508del-CFTR (Homo sapiens, UniProt P13569, DEL508-508)
- testMethodNotes: F508del-CFTR cell surface expression (corrector activity), DiscoveRx ß-galactosidase complementation chemiluminescence assay in recombinant U2OS cell line;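 note: U2OS cells co-expressing ProLink-tagged F508del-CFTR and a membrane-anchored enzyme acceptor, where more surface CFTR restores β-galactosidase activity measured by chemiluminescence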
- runConditions: EC50, F508del-CFTR cell surface expression, U2OS cell line, 16h compound incubation; geomean values
readoutName: EC50 (µM)
Just the number in µM, nothing appended.

Worked cases, answers included:
compound	EC50 (µM)
COc1cccc(CCNC(=O)[C@@H]2CC(=O)N(C)[C@@H](CC(C)C)C(=O)N3CCCC[C@@H]3C(=O)N[C@H](Cc3ccccc3)COc3cnc4ccccc4c3C(=O)N2)c1 [Example 365]	0.398
CC(C)C[C@H]1C(=O)N2CCOC[C@@H]2C(=O)N[C@H](Cc2ccccc2)COc2ccc3ccccc3c2C(=O)N[C@H](C(=O)NCCc2ccc3c(c2)OCO3)CC(=O)N1C [Example 326]	0.276
CC(C)C[C@H]1C(=O)N2CCN(C3CCC3)C[C@H]2C(=O)N[C@H](Cc2ccccc2)COc2cnc3ccccc3c2C(=O)N[C@H](C(=O)NCCc2ccc3c(c2)OCO3)CC(=O)N1C [Example 394]	0.262
COc1cccc2c1C(=O)N[C@H](C(=O)NCC[C@H]1CCCCO1)CC(=O)N(C)[C@@H](CC(C)C)C(=O)N(CCC1CCCCC1)CC(=O)N[C@H](Cc1ccccc1)CO2 (racemic) [Example 212]	0.292

Moving on to the next compound.
Query block: Given COc1cccc2c1C(=O)N[C@H](C(=O)NCCc1ccc3c(c1)OCO3)CC(=O)N(C)[C@@H](CC1CCCC1)C(=O)N(C[C@H]1CCCCO1)CC(=O)N[C@H](Cc1ccccc1)CO2 [Example 307] , state its recorded EC50.
Result block: 0.423
